ASSAY_SUMMARY: chemical genetic growth profiling, strain panel (AID 1159580);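 note: tested at 20 µM; growth read once vehicle control cultures reached saturation at 30 °C; 1 = growth at the plate median or of vehicle wells; lower values mean less growth of the strain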
MEASUREMENT_PARAMETERS: S. cerevisiae deletion strains, growth OD, locus YLR403W, strain SFP1
Hit rate of the full screen: of about 5,500 compounds, about 2,000 (36%) were called active. Inconclusive results (about 18%) are left out. Cut-off read from the data, not from the text of the source: active = normalized growth mostly below about 0.91 (no sharp cut-off); inconclusive = no clear call, values can overlap the other calls; inactive = mostly above about 0.92. Some of the results follow.
The reply should be one of these categories: active, inactive

As a guide, the following entries are already answered.
[
  {
    "COMPOUND": "O=c1c(-c2ccccc2)c(O)c2cccc3c4c(n1c23)CCCC4",
    "CLASSIFICATION": "active"
  },
  {
    "COMPOUND": "S=C(N/N=C\\c1cccs1)NC1CC2CCC1C2 (stereo unspecified)",
    "CLASSIFICATION": "inactive"
  },
  {
    "COMPOUND": "CC(C)(C)c1ccc(C(=O)NNC(=S)Nc2ccc(Cl)cc2)cc1",
    "CLASSIFICATION": "inactive"
  },
  {
    "COMPOUND": "S=C(Nc1ccc(Cl)cc1)Nc1ccc(Cl)cc1",
    "CLASSIFICATION": "inactive"
  },
  {
    "COMPOUND": "O=C(NNC(=S)Nc1ccc(Cl)cc1)c1ncc(C(F)(F)F)cc1Cl",
    "CLASSIFICATION": "inactive"
  },
  {
    "COMPOUND": "O=c1c(-c2ccccc2)c(O)c2cccc3c4ccccc4n1c23",
    "CLASSIFICATION": "active"
  },
  {
    "COMPOUND": "CC(=O)c1ccccc1C(=O)c1ccc(C(C)(C)C)cc1",
    "CLASSIFICATION": "inactive"
  },
  {
    "COMPOUND": "C/C(=N/NC(=O)c1ccc(C(C)(C)C)cc1)c1ccccc1O",
    "CLASSIFICATION": "inactive"
  }
]

[in] Per the records of this test, what outcome belongs to OC(CSc1ccccc1)CN1CCN(c2nc(-c3ccccc3)ns2)CC1 (stereo unspecified) ?
[out] inactive

[in] Would you mind telling me which call this test gave Cn1nc(-c2ccccc2)c(O)c(N=Nc2ccccc2)c1=O ?
[out] inactive

[in] Each compound tested received a call. Report the one for CCOC(=O)c1cnc2c(c(C)nn2C)c1Sc1nnc(SC)s1 .
[out] active

====

ASSAY_SUMMARY: chemical genetic growth profiling, strain panel (AID 1159580);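 note: tested at 20 µM; growth read once vehicle control cultures reached saturation at 30 °C; 1 = growth at the plate median or of vehicle wells; lower values mean less growth of the strain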
MEASUREMENT_PARAMETERS: S. cerevisiae deletion strains, growth OD, locus YMR129W
The whole screen tested about 5,500 compounds, of which about 2,000 (36%) were called active. About 18% were inconclusive and are not listed. Rule as the data show it: active = normalized growth mostly below about 0.91 (no sharp cut-off); inconclusive = no clear call, values can overlap the other calls; inactive = mostly above about 0.92. Some of the results follow.
Answer with one of the outcomes given here: true (1) (active), false (0) (inactive)

[
  {
    "COMPOUND": "CC(=O)Oc1ccccc1C(=O)O",
    "CLASSIFICATION": "false (0)"
  },
  {
    "COMPOUND": "CNC(Cc1c[nH]c2ccccc12)C(=O)O (configuration not stated)",
    "CLASSIFICATION": "false (0)"
  }
]

[in] Recorded test call requested for CC(=O)[O][Hg][c]1ccccc1
[out] true (1)

[in] Hi, do you know how c1ccc2c(Cc3c[nH]c4ccccc34)c[nH]c2c1 came out in this test?
[out] true (1)

[in] Lab log entry: CCOc1cccc(C(=O)c2ccc(O)c(O)c2O)c1 — outcome as called in the assay?
[out] false (0)

[in] Would you mind telling me which call this test gave NCCc1c[nH]c2ccccc12 ?
[out] false (0)

[in] Give the logged outcome of this assay for the following compound: CC(=O)N[C@@H](Cc1c[nH]c2ccccc12)C(=O)O
[out] false (0)
